Tested on: SK-OV-3 ovarian
Method description: NCI-60 one-dose screen, 48 h (100 = growth as untreated, 0 = no growth, -100 = all killed)
Setup conditions: 10 µM unless noted
This is part of a sample that, as a whole, favours compounds with a hit. Of some 83,000 tested, about 20% had one in any assay.
Measure: growth (%)
The answer is to be given in %; state only the numeric part.

{"Compound": "O=c1[nH]c(Cc2nc3ccccc3s2)nc2cc(Br)ccc12", "Unit descriptor": "%", "Test value": 78.8}
{"Compound": "O=C(CSc1oc(-c2ccccc2)nc1S(=O)(=O)c1ccccc1)Nc1ccc(F)cc1", "Unit descriptor": "%", "Test value": 95.8}
{"Compound": "CCOC(=O)C1=C(C)NC(=O)NC1c1c(Cl)n(CCCl)c2ccccc12 (stereo not drawn)", "Unit descriptor": "%", "Test value": 104}
{"Compound": "CN1CCN(c2cc(Nc3cc(C4CC4)[nH]n3)nc(Nc3ccc(CC(=O)NCc4cccc(F)c4)cc3)n2)CC1", "Unit descriptor": "%", "Test value": 24}

Item Nc1nc(-c2ccc(Cl)cc2)nc2c1sc(=S)n2-c1ccccc1 ; assay system SK-OV-3 ovarian; growth reported as 23.4

Item COc1cc2nc3cc([N+](=O)[O-])ccc3c(NCCNCC(C)O)c2cc1OC (stereo not drawn) ; assay system SK-OV-3 ovarian; growth reported as 20.8

Item CC1=NC2=Nn3c(c4cnn(-c5ccccc5)c4n/c3=N\N)NN2C(c2ccccc2)=C1 ; assay system SK-OV-3 ovarian; growth reported as 98

====

System: 786-0 renal
Method description: NCI-60 one-dose screen, 48 h
Setup conditions: 10 µM unless noted
Compounds without any hit were thinned out: in the full panel of roughly 83,000, 20% have a hit. Active and inactive are the calls of the source. The calls were made as follows: active = growth percent below 10; inactive = the rest.
# output must be one of y = active, n = inactive

Worked examples follow.
{"Molecule": "COc1ccc(-c2nc3cc(C(=O)NCc4ccccc4)ccc3n2C2CCCCC2)cc1", "Assigned class": "n"}
{"Molecule": "COc1ccc(C(O)c2cc3c(N)c(C(=O)Nc4cccc(Br)c4)sc3nc2C)cc1 (stereo not given)", "Assigned class": "n"}
{"Molecule": "CC1OC(n2c3ccccc3c3c4c(c5c6ccccc6[nH]c5c32)C(=O)N(CCN2CCCC2)C4=O)CC(O)C1O (stereo not given)", "Assigned class": "n"}
{"Molecule": "COc1ccc(C(=O)N2c3ccccc3Sc3ccccc32)c(OC)c1", "Assigned class": "n"}
{"Molecule": "Cc1cc(N2CCN(CCNc3ccnc4cc(Cl)ccc34)CC2)nc(N2CCOCC2)n1", "Assigned class": "n"}

Please share the test call associated with CCN1CCN(C(=O)[C@]23CCC(C)(C)C[C@@H]2C2=CC[C@@H]4[C@@]5(C)CCC(=O)C(C)(C)[C@@H]5CC[C@@]4(C)[C@]2(C)CC3)CC1 .
n

Please share the test call associated with COc1ccc(/C=C/C(=O)c2cccc(OCCCCOc3cccc(C(=O)/C=C/c4ccc(OC)c(OC)c4)c3)c2)cc1OC .
n

Please share the test call associated with Nc1nc2ccccc2c2c1S(=O)(=O)c1ccc(Cl)cc1C2=O .
n

Please share the test call associated with COc1ccc(/C=C/C(=O)c2ccc(Nc3ccnc4cc(Cl)ccc34)cc2)cc1 .
n

Please share the test call associated with Cn1cc(-c2csc(-c3cn(C(=O)OC(C)(C)C)c4ccc(Br)cc34)n2)c2ccnc(Cl)c21 .
n

Please share the test call associated with CS(=O)(=O)Nc1cncc(-c2ccc3ncnc(Nc4cncc(Cl)c4)c3c2)c1 .
n

Please share the test call associated with N#Cc1ccc(O)c(C2=NCC(c3cccc(Oc4ccccc4)c3)O2)c1 (stereo not given) .
n

Please share the test call associated with CCN(CC)S(=O)(=O)c1ccc(S(=O)(=O)N2CCC[C@@H](C(=O)N3CCN(c4nc(C(C)C)no4)CC3)C2)cc1 .
n

Please share the test call associated with Cc1c(O)cc(-c2cnc(Nc3ccccc3)s2)c(O)c1C .
n

====

System: OVCAR-4 ovarian
Method description: NCI-60 one-dose screen, 48 h
Setup conditions: 10 µM unless noted
The panel holds about 83,000 compounds, 20% with a hit somewhere; the sample as a whole holds those more often. The source made the active and inactive calls. How the source made its calls: active means growth percent below 10; inactive means the rest.
# output must be one of active, inactive

{"Compound": "O=C(Nc1ccc(Oc2cccc(Cl)c2)c(Cl)c1)c1cnccn1", "Assigned class": "inactive"}

Please share the test call associated with COC(=O)c1cc(N=C2NC(=O)/C(=C/C=C/c3ccccc3)S2)ccc1O .
inactive

Please share the test call associated with CCN1C(=S)N(c2ccccc2)C2NC(=S)N(/N=C/C=C/c3ccccc3OC)C21 (configuration not stated) .
inactive

Please share the test call associated with CCCCCOC(=O)c1c(C)[nH]c(/C=C2\N=C(c3ccc[nH]3)C=C2OC)c1C .
active

====

Test system: A549/ATCC NSCLC
Method description: NCI-60 one-dose screen, 48 h
Setup conditions: 10 µM unless noted
This is part of a sample that, as a whole, favours compounds with a hit. Of some 83,000 tested, about 20% had one in any assay. Active and inactive are the calls of the source. The calls were made as follows: active = growth percent below 10; inactive = the rest.
# output must be one of active, inactive

{"Compound": "CCCCNC(=O)Oc1ccc(/C(=C(/C)Cc2ccc(OC)cc2)c2ccc(OCCN(CC)CC)cc2)cc1", "Assigned class": "inactive"}

Now for another entry.
Please share the test call associated with O=C(CN1C(=O)NC2NC(=O)NC21)N/N=C/c1ccccc1[N+](=O)[O-] (stereo not given) .
inactive

====

Reported growth values for the following molecules.
System: 786-0 renal
Method description: NCI-60 one-dose screen, 48 h (100 = growth as untreated, 0 = no growth, -100 = all killed)
Setup conditions: 10 µM unless noted
Protocol: Cells are grown in 96 well plates and exposed to the test compound for 48 hours. Compounds are tested at a single concentration, which is 10^-5 M for most compounds. The reported endpoint is percent growth (GI% or GIPRCNT), where numbers from 0 - 100% represent growth inhibition, and numbers from -100% - 0 represent cell death. For example, a value of 40 represents 60% growth inhibition. A value of 0 means no net growth occurred over the course of the experiment. […]
This is part of a sample that, as a whole, favours compounds with a hit. Of some 83,000 tested, about 20% had one in any assay.
The answer is to be given in %; state only the numeric part.

Sample records with growth:
{"Molecule": "NC(Cc1ccc(O)c([N+](=O)[O-])c1)C(=O)O (stereo unspecified)", "growth [%]": 99.2}
{"Molecule": "COc1cc(/C=C2/C=C(c3ccccc3)N(CCc3ccc(S(N)(=O)=O)cc3)C2=O)cc(OC)c1OC", "growth [%]": 85.5}
{"Molecule": "O=C1c2c(c3c4ccccc4[nH]c3c3ccc4ccccc4c23)C(=O)N1CCN1CCOCC1", "growth [%]": 52.5}
{"Molecule": "c1cnc2c(-c3nc4ccc5[nH]ncc5c4c4c3CCCC4)c[nH]c2c1", "growth [%]": 32.5}
{"Molecule": "COc1ccc(Nc2nnc(-c3ccc(OC)c(OC)c3)o2)cc1", "growth [%]": 91.9}
{"Molecule": "COc1ccc(C(=O)c2cc3c(N)c(C(=O)Nc4ccc(C)cc4)sc3nc2C)cc1", "growth [%]": 42.9}

Consider COc1ccc(-c2ccc(=O)oc2-c2cc(OC)c(OC)c(OC)c2)cc1O . Its measured growth is -6.12

Consider N#Cc1ccc2c(c1)C(=O)c1c-2n(CCCN)c(=O)c2cc([N+](=O)[O-])ccc12 . Its measured growth is -90

Consider O=C(Nc1ccc(Oc2cccc(Cl)c2)c(Cl)c1)c1cccnc1 . Its measured growth is 39.2

Consider CCC(=O)Oc1ccc(-c2ccccc2)cc1Br . Its measured growth is 105

Consider CCC(C)N(CCNc1cc(OC)cc2cccnc12)CC(C)C (stereo unspecified) . Its measured growth is 117

Consider COc1ccc(OC)c(-c2nc(SCC(=O)c3ccc(C#N)cc3)[nH]c(=O)c2C#N)c1 . Its measured growth is 101

Consider CN1CCN(C(=O)c2ccc(NC(=O)c3cc4c(nn3)NCCN4Cc3cc(Cl)ccc3Cl)cc2)CC1 . Its measured growth is 75.2

Consider N#Cc1c(-c2ccccc2)cc(-c2ccc(Nc3nc(Nc4ccc(Cl)cc4)nc(Nc4ccc(Cl)cc4)n3)cc2)nc1N . Its measured growth is 46.7

Consider Clc1ccc2c(c1)C(c1c[nH]c3ccccc13)(c1c[nH]c3ccccc13)CCO2 . Its measured growth is 80.8

====

System: SNB-75 CNS
Method description: NCI-60 one-dose screen, 48 h
Setup conditions: 10 µM unless noted
This is part of a sample that, as a whole, favours compounds with a hit. Of some 83,000 tested, about 20% had one in any assay. Activity calls are given as the source filed them. How the source made its calls: active means growth percent below 10; inactive means the rest.
# output must be one of TRUE = active, FALSE = inactive

Worked examples follow.
{"Compound": "Cc1cc(N2CCN(CCNc3ccnc4cc(Cl)ccc34)CC2)nc(N2CCOCC2)n1", "Assigned class": "FALSE"}
{"Compound": "CCc1ccccc1-n1c(-c2ccc(OC)cc2)cc(-c2ccc(OC)cc2)c(C#N)c1=O", "Assigned class": "TRUE"}
{"Compound": "CCCOC(=O)Nc1nc2ccc(SCC(C)C)cc2s1", "Assigned class": "FALSE"}
{"Compound": "COc1cc(-c2cncn2-c2ccc(-c3nc4ccc(F)cc4s3)cc2)ccc1F", "Assigned class": "FALSE"}
{"Compound": "CCN(CC)Cc1cc(C=C2C(=O)NC(=S)NC2=O)cc(OC)c1O", "Assigned class": "FALSE"}
{"Compound": "NC(=O)CSc1oc(-c2ccccc2)nc1S(=O)(=O)c1ccc(Br)cc1", "Assigned class": "TRUE"}

Please share the test call associated with CNC(=O)c1ccccc1Oc1nc(Nc2cc(OC)c(OC)c(OC)c2)ncc1Br .
FALSE

Please share the test call associated with Cc1ccc(NC(=O)c2sc3nc(C)c(Br)c(C)c3c2N)cc1 .
FALSE

Please share the test call associated with Nc1c(C(=O)Nc2ccncc2)sc2nc3c(cc12)C(O)CCC3 (configuration not stated) .
FALSE

Please share the test call associated with COc1cc(OC)c(/C=C/C(=O)c2c(OC)cccc2OC)c(OC)c1 .
FALSE

Please share the test call associated with Nc1nc(N)c(-c2ccc(Cl)c(Cl)c2)c(CBr)n1 .
FALSE

Please share the test call associated with CC(O)(c1ccccc1)C(c1ccccc1)C1CCCCN1 (configuration not stated) .
FALSE
